Measured IC50, listed per entry.
Target: human recombinant MAGL (Homo sapiens (Human), UniProt Q99685)
Sequence (Q99685 whole entry): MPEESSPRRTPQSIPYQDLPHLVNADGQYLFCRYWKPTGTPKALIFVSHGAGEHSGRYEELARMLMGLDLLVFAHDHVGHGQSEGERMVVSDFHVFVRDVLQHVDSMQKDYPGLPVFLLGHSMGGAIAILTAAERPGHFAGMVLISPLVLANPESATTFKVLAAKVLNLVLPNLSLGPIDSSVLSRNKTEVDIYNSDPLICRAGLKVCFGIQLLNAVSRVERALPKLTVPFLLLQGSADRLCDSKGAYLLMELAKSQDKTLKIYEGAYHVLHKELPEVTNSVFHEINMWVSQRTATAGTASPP
Experiment: In vitro inhibition of MAGL activity (inhibitor screening kit, 4-nitrophenylacetate)
Settings: human recombinant MAGL

For orientation, consider the following solved cases.
[
  {
    "compound": "CC1CCC(NC(=O)Oc2ccc(O)c(-c3cncc(-c4nnco4)c3)c2)CC1 (stereo not drawn)",
    "IC50": "> 10 µM"
  },
  {
    "compound": "COc1ccc(OC(=O)NCC2CCCCC2)cc1-c1cncc(-c2ccco2)c1",
    "IC50": "~10 µM"
  },
  {
    "compound": "CN(C)c1ccc(OC(=O)NC2CCCCC2)cc1-c1cncc(-c2nnco2)c1",
    "IC50": "> 10 µM"
  },
  {
    "compound": "NC(=O)c1cccc(-c2cccc(OC(=O)NC3CCCCC3)c2)c1 [URB597, reference compound]",
    "IC50": "> 50 µM"
  },
  {
    "compound": "COc1ccc(OC(=O)NC2CCCC2)cc1-c1cncc(-c2ccno2)c1",
    "IC50": "> 10 µM"
  },
  {
    "compound": "CCCCCCCCNC(=O)Oc1cccc(-c2cncc(-c3ncco3)c2)c1",
    "IC50": "> 10 µM"
  },
  {
    "compound": "CCOC(=O)c1cncc(-c2cccc(OC(=O)NC3CCCC3)c2)c1",
    "IC50": "> 10 µM"
  },
  {
    "compound": "O=C(NCC1CCCCC1)Oc1cccc(-c2cncc(-c3ncco3)c2)c1",
    "IC50": "> 1 µM"
  }
]

Here's the next entry for you.
Q: Write down the reported IC50 of O=C(NC1CCCC1)Oc1ccc(O)c(-c2cncc(-c3nnn[nH]3)c2)c1 , test system: human recombinant MAGL (Homo sapiens (Human), UniProt Q99685).
Result: > 10 µM

====

Measured IC50, listed per entry.
Target: human recombinant MAGL (Homo sapiens (Human), UniProt Q99685)
Test: In vitro inhibition of MAGL activity (inhibitor screening kit, 4-nitrophenylacetate)
Conditions: human recombinant MAGL

[
  {
    "smiles_code": "O=C(NC1CCCCCC1)Oc1ccc(O)c(-c2cncc(-c3ncn[nH]3)c2)c1",
    "reported_metric": "IC50",
    "endpoint_result": "> 10 µM"
  }
]

Q: Give the measured IC50 of CCOC(=O)c1cncc(-c2cccc(OC(=O)NC3CCCCC3)c2)c1 .
Result: > 0.1 µM

Q: Give the measured IC50 of CCCCN(CCCC)C(=O)Oc1cccc(-c2cncc(-c3nnco3)c2)c1 .
Result: ~10 µM

Q: Give the measured IC50 of COc1ccc(OC(=O)NC2CCCCC2)cc1-c1cncc(-c2ccc[nH]2)c1 .
Result: > 10 µM

====

Target: human recombinant FAAH (Homo sapiens (Human))
Sequence (O00519 whole entry): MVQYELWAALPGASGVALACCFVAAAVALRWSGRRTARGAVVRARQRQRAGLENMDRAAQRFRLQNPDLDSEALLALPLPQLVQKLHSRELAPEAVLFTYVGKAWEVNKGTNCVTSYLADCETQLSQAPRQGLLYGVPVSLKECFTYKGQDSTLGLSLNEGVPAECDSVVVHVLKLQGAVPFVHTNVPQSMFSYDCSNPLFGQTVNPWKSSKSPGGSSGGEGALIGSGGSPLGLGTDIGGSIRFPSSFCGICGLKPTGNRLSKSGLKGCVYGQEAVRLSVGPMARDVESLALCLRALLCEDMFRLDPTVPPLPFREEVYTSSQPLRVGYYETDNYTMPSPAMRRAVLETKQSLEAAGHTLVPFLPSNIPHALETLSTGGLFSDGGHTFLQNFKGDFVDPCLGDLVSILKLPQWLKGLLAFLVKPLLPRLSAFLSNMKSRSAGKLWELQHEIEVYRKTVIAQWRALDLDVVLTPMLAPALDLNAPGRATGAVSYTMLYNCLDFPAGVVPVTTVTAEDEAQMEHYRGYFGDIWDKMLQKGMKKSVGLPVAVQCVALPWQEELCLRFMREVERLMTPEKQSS
Test: In vitro inhibition of FAAH activity (fluorescent inhibitor screening kit, AMC arachidonoyl amide)
Format: biochemical
Conditions: human recombinant FAAH; read-out: Inhibition on FAAH activity (IC50)
Measured IC50, listed per entry.

For orientation, consider the following solved cases.
[
  {
    "molecule": "O=C(NCC1CCCCC1)Oc1cccc(-c2cncc(-c3ncco3)c2)c1",
    "IC50": "10 to 100 nM"
  },
  {
    "molecule": "CCCCCCCCNC(=O)Oc1cc(F)cc(-c2cncc(-c3nnco3)c2)c1",
    "IC50": "1 to 10 nM"
  },
  {
    "molecule": "CCCCCCCCNC(=O)Oc1ccc(OC(F)(F)F)c(-c2cncc(-c3nnco3)c2)c1",
    "IC50": "10 to 100 nM"
  }
]

Q: Write down the reported IC50 of O=C(Oc1cccc(-c2cncc(-c3nnco3)c2)c1)N1CC2(COC2)C1 , test system: human recombinant FAAH (Homo sapiens (Human)).
Result: > 1000 nM

Q: Write down the reported IC50 of O=C(Oc1cccc(-c2cncc(-c3nnco3)c2)c1)N1CC2(CCC2)C1 , test system: human recombinant FAAH (Homo sapiens (Human)).
Result: 401 nM

Q: Write down the reported IC50 of COc1ccc(OC(=O)NC2CCCCC2)cc1-c1cncc(-c2ccno2)c1 , test system: human recombinant FAAH (Homo sapiens (Human)).
Result: ~100 nM

Q: Write down the reported IC50 of COc1ccc(OC(=O)NC2CCC(C)CC2)cc1-c1cncc(-c2ncco2)c1 (stereo not drawn) , test system: human recombinant FAAH (Homo sapiens (Human)).
Result: 100 to 1000 nM

Q: Write down the reported IC50 of O=C(NC1CCCCCC1)Oc1ccc(OC(F)(F)F)c(-c2cncc(-c3ncco3)c2)c1 , test system: human recombinant FAAH (Homo sapiens (Human)).
Result: 100 to 1000 nM

Q: Write down the reported IC50 of CCCCCCCCNC(=O)Oc1ccc(O)c(-c2cncc(-c3ncn[nH]3)c2)c1 , test system: human recombinant FAAH (Homo sapiens (Human)).
Result: 1 to 10 nM
